Where do the numbers come from? From the supplement of paper PMC11208160.

assay: recombinant barcode read abundance after kanamycin selection (control-corrected) (log10(CPM+1)); higher = more efficient recombination; sequences stand for … in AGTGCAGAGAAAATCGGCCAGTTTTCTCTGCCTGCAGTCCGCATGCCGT…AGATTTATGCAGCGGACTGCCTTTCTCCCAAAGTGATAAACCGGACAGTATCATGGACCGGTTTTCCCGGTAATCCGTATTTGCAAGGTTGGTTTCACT; site = the 11-nt target
Class definitions on recombinant barcode read abundance (log10): low bin: < 0.1; mid bin: ≥ 0.1 and < 0.4; high bin: ≥ 0.4

INSERT INTO assay_data (primary_sequence, label_value) VALUES
  ('GCGCCCTCTTGGGTTCTAACCTGTTGCCG (site GCGCCCTCTCG)', 'high bin'),
  ('GCGCTTACTTGGGTTCTAACCTGTTGCCT (site GTGCTTACTAG)', 'low bin'),
  ('ACAGTACCTTGGGTTCTAACCTGTTGCTG (site TAGCCCTCTTT)', 'mid bin'),
  ('CTACGTCCTTGGGTTCTAACCTGTTGCTG (site CTACGTCCTTA)', 'low bin'),
  ('AGAGTAACTTGGGTTCTAACCTGTTGCAC (site AGAGTAACTGT)', 'high bin'),
  ('GGAATTCCTTGGGTTCTAACCTGTTGCCT (site GGAATCCCTAG)', 'low bin'),
  ('GCACACTCTTGGGTTCTAACCTGTTGCCT (site GCACTCTCTAG)', 'mid bin'),
  ('AGGGAATCTTGGGTTCTAACCTGTTGCCT (site AGCGAATCTAG)', 'mid bin'),
  ('GAGAATACTTGGGTTCTAACCTGTTGCGT (site AAGAATACTAG)', 'low bin'),
  ('TAGCCGGCTTGGGTTCTAACCTGTTGCCT (site TAGCCGGCTAA)', 'mid bin'),
  ('TATAGTACTTGGGTTCTAACCTGTTGCCT (site TATAGTACTAG)', 'mid bin'),
  ('GTCGTAGCTTGGGTTCTAACCTGTTGCTA (site GTCGAACCTTA)', 'mid bin'),
  ('TTACCAACTTGGGTTCTAACCTGTTGCCT (site TTACCTACTAG)', 'mid bin'),
  ('CGGTAACCTTGGGTTCTAACCTGTTGCCT (site TGGTAACCTAG)', 'high bin'),
  ('TGTACGTCTTGGGTTCTAACCTGTTGCTT (site TGTACGACTAG)', 'low bin'),
  ('TCAGTATCTTGGGTTCTAACCTGTTGCCT (site TCAGTATCTAG)', 'high bin'),
  ('AGATACTCTTGGGTTCTAACCTGTTGCCT (site AGATACTCTAG)', 'high bin'),
  ('GACGGAGCTTGGGTTCTAACCTGTTGCTG (site GACGGAGCTCA)', 'high bin'),
  ('TCCACAGCTTGGGTTCTAACCTGTTGCCT (site TCCACACCTAG)', 'mid bin'),
  ('TAGGCTCCTTGGGTTCTAACCTGTTGCCT (site TAGGCTCCTAG)', 'low bin'),
  ('TAGCACACTTGGGTTCTAACCTGTTGCGG (site TAGCGCACTCC)', 'mid bin'),
  ('ACACCCTCTTGGGTTCTAACCTGTTGCAG (site ACACCCTCTCT)', 'high bin'),
  ('ACAGCTACTTGGGTTCTAACCTGTTGCTT (site GCAGCTACTCA)', 'low bin'),
  ('TGAACGTCTTGGGTTCTAACCTGTTGCCT (site TGAATGTCTAG)', 'mid bin'),
  ('TGTAGTCCTTGGGTTCTAACCTGTTGCCT (site TGTAGTCCTAC)', 'low bin'),
  ('TCAGGGACTTGGGTTCTAACCTGTTGCAG (site TCGGGGACTCG)', 'mid bin'),
  ('GGAAGTTCTTGGGTTCTAACCTGTTGCCT (site GTAAGTTCTAG)', 'high bin'),
  ('TTCACGCCTTGGGTTCTAACCTGTTGCCT (site TTCCCGCCTAG)', 'mid bin'),
  ('CACACTACTTGGGTTCTAACCTGTTGCTG (site CACACTACTCA)', 'high bin'),
  ('TAACCATCTTGGGTTCTAACCTGTTGCCT (site TAACCATCTAG)', 'mid bin'),
  ('TGAACGTCTTGGGTTCTAACCTGTTGCCT (site TGAAAGTCTAG)', 'mid bin'),
  ('CGAATCTCTTGGGTTCTAACCTGTTGCCT (site CGAATCACTAG)', 'low bin'),
  ('TTCTATGCTTGGGTTCTAACCTGTTGCGT (site AAGCGCTCTCA)', 'low bin'),
  ('TGTCAAACTTGGGTTCTAACCTGTTGCCT (site TGTCAACCTAG)', 'mid bin'),
  ('ACAGGTCCTTGGGTTCTAACCTGTTGCCG (site GTCTAATCTAT)', 'mid bin'),
  ('GGGTTGCCTTGGGTTCTAACCTGTTGCCT (site GAGTTGCCTAG)', 'high bin'),
  ('TCTCACTCTTGGGTTCTAACCTGTTGCCT (site TCTCACTCTAG)', 'high bin'),
  ('CTCGAATCTTGGGTTCTAACCTGTTGCTA (site CTCGAATCTTA)', 'high bin'),
  ('TATTGCCCTTGGGTTCTAACCTGTTGCCT (site TATTGCCCTAG)', 'mid bin'),
  ('GAGGACTCTTGGGTTCTAACCTGTTGCCA (site GAGGACTCTCG)', 'mid bin'),
  ('GTAGAGTCTTGGGTTCTAACCTGTTGCCT (site GGAGAGTCTAG)', 'mid bin');

---

Catalogue of recombinant UMI read abundance (log10) readings, one per entry.
experiment: recombinant UMI read abundance after kanamycin selection (control-corrected) (log10(CPM+1)); higher = more efficient recombination; extreme values may be limits of the assay; sequences stand for … in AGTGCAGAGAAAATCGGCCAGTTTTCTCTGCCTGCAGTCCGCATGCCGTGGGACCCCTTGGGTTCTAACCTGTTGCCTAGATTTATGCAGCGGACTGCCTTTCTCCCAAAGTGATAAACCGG…AGGTTGGTTTCACT; site = the 11-nt donor
measurement.type: recombinant UMI read abundance (log10)

INSERT INTO measurements (primary_sequence, measured_result) VALUES
  ('GAACTCACATGGACCGGTTTTCCCGGTAATCCGTATTTGAT (site GAACTCACTAT)', 2.08),
  ('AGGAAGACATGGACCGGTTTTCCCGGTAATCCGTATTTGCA (site AGGAAGACTGT)', 0),
  ('TCAGCATCATGGACCGGTTTTCCCGGTAATCCGTATTTGCA (site ACAGTATCTTG)', 0.8),
  ('TAGGCTTCATGGACCGGTTTTCCCGGTAATCCGTATTTGGT (site TAGGCTTCTAC)', 1.54),
  ('ATGTAGGCATGGACCGGTTTTCCCGGTAATCCGTATTTGAC (site ATGTAGGCTGT)', 3.04),
  ('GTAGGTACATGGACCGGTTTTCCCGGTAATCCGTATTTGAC (site GCAGGTACTGT)', 0.704),
  ('CCTAATACATGGACCGGTTTTCCCGGTAATCCGTATTTGGG (site CCTAATACTTC)', 0.0102),
  ('AGCCTCTCATGGACCGGTTTTCCCGGTAATCCGTATTTGAC (site AGCCTGTCTGT)', 0),
  ('GCCCCGCCATGGACCGGTTTTCCCGGTAATCCGTATTTGTA (site GCCCCGCCTTA)', 0.478),
  ('CCTAATACATGGACCGGTTTTCCCGGTAATCCGTATTTGGG (site CCTAATACTAC)', 0),
  ('TAAAGTCCATGGACCGGTTTTCCCGGTAATCCGTATTTGTG (site TAAAGTCCTCA)', 0.64),
  ('CTGCAACCATGGACCGGTTTTCCCGGTAATCCGTATTTGCT (site CTGCGACCTAG)', 0.00379),
  ('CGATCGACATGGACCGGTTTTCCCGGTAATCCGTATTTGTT (site CGGTCGACTAA)', 0.012),
  ('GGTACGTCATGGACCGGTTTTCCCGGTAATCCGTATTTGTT (site CGTACGTCTAA)', 0),
  ('CATTTGGCATGGACCGGTTTTCCCGGTAATCCGTATTTGCT (site CGTTTGGCTAG)', 0),
  ('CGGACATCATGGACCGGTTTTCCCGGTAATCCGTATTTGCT (site CGGACAACTAG)', 0.552),
  ('CGTTCGGCATGGACCGGTTTTCCCGGTAATCCGTATTTGCT (site CGTTCGGCTAG)', 1.63),
  ('TAGGAGTCATGGACCGGTTTTCCCGGTAATCCGTATTTGCG (site TAGGAGTCTCG)', 3.24);

---

test: recombinant UMI read abundance after kanamycin selection (control-corrected) (log10(CPM+1)); higher = more efficient recombination; extreme values may be limits of the assay; sequences stand for … in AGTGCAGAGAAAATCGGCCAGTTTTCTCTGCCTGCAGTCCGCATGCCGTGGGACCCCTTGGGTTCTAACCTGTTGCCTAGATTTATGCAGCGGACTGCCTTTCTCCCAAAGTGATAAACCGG…AGGTTGGTTTCACT; site = the 11-nt donor
Rule: criterion met for recombinant UMI read abundance (log10) not less than 0.9, criterion not met for anything less.

INSERT INTO assay_data (primary_sequence, label_value) VALUES
  ('TTGCCTTCATGGACCGGTTTTCCCGGTAATCCGTATTTGGT (site TGGCCTTCTAC)', 'criterion not met'),
  ('CTGGATACATGGACCGGTTTTCCCGGTAATCCGTATTTGCA (site CTGGACACTTG)', 'criterion met'),
  ('CGGACATCATGGACCGGTTTTCCCGGTAATCCGTATTTGCC (site CGGACATCTCG)', 'criterion not met'),
  ('CACGGGCCATGGACCGGTTTTCCCGGTAATCCGTATTTGTT (site CACGGCCCTAA)', 'criterion not met'),
  ('AGAGTATCATGGACCGGTTTTCCCGGTAATCCGTATTTGCC (site AGAGTATCTGG)', 'criterion met'),
  ('GTAGGCACATGGACCGGTTTTCCCGGTAATCCGTATTTGAC (site GTAGGTACTGT)', 'criterion not met'),
  ('GGTACGTCATGGACCGGTTTTCCCGGTAATCCGTATTTGGT (site GGTACGTCTAT)', 'criterion not met'),
  ('GCCACAGCATGGACCGGTTTTCCCGGTAATCCGTATTTGTT (site GCCACAGCTAA)', 'criterion met');
